Ref: ChEMBL document CHEMBL4251603

Target: MAO-A (Homo sapiens)
Test: Inhibition of MAO-A (unknown origin) at 1 uM using beetle luciferin derived luminogenic substrate preincubated for 15 mins followed by substrate addition measured after 60 mins by MAO-Glo assay relative to control
Settings: MAO-A enzyme (unknown origin), probe beetle luciferin derived luminogenic substrate
The threshold is inclusive: inhibition at 1 h, 1 µM of exactly 30% counts as Y; values below receive N.

Answered cases to consult:
{"columns": ["compound", "classification"],
 "data": [
  ["Fc1ccc(CN[C@H]2C[C@@H]2c2ccccc2)cc1F (relative stereo)", "Y"],
  ["O=[N+]([O-])c1ccccc1CN[C@H]1C[C@@H]1c1ccccc1 (relative stereo)", "N"],
  ["c1ccc(-c2ccc(CN[C@H]3C[C@@H]3c3ccccc3)cc2)cc1 (relative stereo)", "Y"]
]}

Moving on to another compound below.
Query: Please tell me: is the compound Fc1ccc(CN[C@H]2C[C@@H]2c2ccccc2)cc1 (relative stereo) at or over 30% in terms of inhibition at 1 h, 1 µM?
Response: N

###

Below, each entry is listed with its recorded inhibition at 1 h, 10 µM.
Target: MAO-A (Homo sapiens, UniProt P21397)
Sequence (P21397 whole entry): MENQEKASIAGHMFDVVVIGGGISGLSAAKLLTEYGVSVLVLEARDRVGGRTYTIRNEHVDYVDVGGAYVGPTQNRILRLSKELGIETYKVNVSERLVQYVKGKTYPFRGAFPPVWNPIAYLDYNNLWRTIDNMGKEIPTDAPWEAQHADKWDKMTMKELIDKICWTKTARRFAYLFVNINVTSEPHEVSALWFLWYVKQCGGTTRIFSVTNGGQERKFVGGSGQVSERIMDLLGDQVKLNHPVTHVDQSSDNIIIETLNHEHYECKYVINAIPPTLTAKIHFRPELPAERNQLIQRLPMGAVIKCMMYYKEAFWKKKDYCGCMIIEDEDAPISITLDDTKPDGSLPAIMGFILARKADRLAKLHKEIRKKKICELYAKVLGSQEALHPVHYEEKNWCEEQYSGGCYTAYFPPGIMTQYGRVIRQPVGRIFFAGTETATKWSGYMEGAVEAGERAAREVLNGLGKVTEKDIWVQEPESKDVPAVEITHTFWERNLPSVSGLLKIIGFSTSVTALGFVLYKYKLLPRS
Assay: in vitro
Settings: MAO-A enzyme (unknown origin), probe beetle luciferin derived luminogenic substrate
Note: unit % is implicit; provide only the numeric part.

{"columns": ["compound", "system", "unit label", "result value"],
 "data": [
  ["Clc1ccc(CN[C@H]2C[C@@H]2c2ccccc2)c(Cl)c1 (relative stereo)", "MAO-A (Homo sapiens, UniProt P21397)", "%", 73],
  ["Cn1c(CN[C@H]2C[C@@H]2c2ccccc2)cc2ccccc21 (relative stereo)", "MAO-A (Homo sapiens, UniProt P21397)", "%", 54],
  ["COc1ccccc1CN[C@H]1[C@@H](C)[C@@H]1c1ccccc1 (relative stereo)", "MAO-A (Homo sapiens, UniProt P21397)", "%", 32],
  ["O=[N+]([O-])c1cc(CN[C@H]2C[C@@H]2c2ccccc2)ccc1Cl (relative stereo)", "MAO-A (Homo sapiens, UniProt P21397)", "%", 100],
  ["Clc1ccccc1CN[C@H]1C[C@@H]1c1ccccc1 (relative stereo)", "MAO-A (Homo sapiens, UniProt P21397)", "%", 62],
  ["Fc1ccccc1CN[C@H]1C[C@@H]1c1ccccc1 (relative stereo)", "MAO-A (Homo sapiens, UniProt P21397)", "%", 20]
]}

// assay MAO-A (Homo sapiens, UniProt P21397), entry Brc1ccc(CN[C@H]2C[C@@H]2c2ccccc2)cc1 (relative stereo) , inhibition at 1 h, 10 µM value = 43

Per the reported MAO-A (Homo sapiens, UniProt P21397) data, Fc1cccc(CN[C@H]2C[C@@H]2c2ccccc2)c1 (relative stereo) has inhibition at 1 h, 10 µM of 69

Simply: COc1ccc(CN[C@H]2C[C@@H]2c2ccccc2)cc1OC (relative stereo) , MAO-A (Homo sapiens, UniProt P21397), inhibition at 1 h, 10 µM = 69
